Test system: HT29
assay details: Cytotoxicity in vitro in the presence and absence of elastase (MTT assay)
Assay type: cell-based
condition context: HT29 cells; with 10 nM elastase (NE); 72 h incubation; read-out: IC50 with neutrophil elastase
pIC50: −log10 of the molar value.
measurement kind: pIC50

[
  {
    "compound": "CCc1c2c(nc3ccccc13)-c1cc3c(c(=O)n1C2)COC(=O)[C@@]3(CC)OC(=O)[C@@H](NC(=O)[C@@H]1CCCN1C(=O)[C@H](CC(=O)[O-])NC(=O)CCOCCOCCOCCNC(=O)CCCC(=O)NCCCC[C@H](NC(=O)CCOCCOCCOCCNC(=O)CCC(=O)Nc1cccc2c(C(=O)NCC(=O)N3CC(F)(F)C[C@H]3C#N)ccnc12)C(=O)NCCCCCCCC(=O)[O-])C(C)C.[Na+].[Na+] [Compound 21]",
    "measurement kind": "pIC50",
    "data value": "7.00 to 8.00"
  },
  {
    "compound": "CCCNC(=O)Nc1cccc(S(=O)(=O)Nc2cccc([C@@H](CC(=O)O)NC(=O)Nc3ccc(NC(=O)NCCOCCOCCOCCC(=O)N[C@@H](CC(=O)O)C(=O)N4CCC[C@H]4C(=O)N[C@H](C(=O)N[C@@H](CCN(C(=O)CO)[C@@H](c4cc(-c5cc(F)ccc5F)cn4Cc4ccccc4)C(C)(C)C)C(=O)NC)C(C)C)cc3)c2)c1 [Compound 26]",
    "measurement kind": "pIC50",
    "data value": "8.00 to 9.00"
  },
  {
    "compound": "CCCNC(=O)Nc1cccc(S(=O)(=O)Nc2cccc([C@@H](CC(=O)O)NC(=O)Nc3ccc(NC(=O)NCCOCCOCCOCCC(=O)N[C@@H](CC(N)=O)C(=O)N4CCC[C@H]4C(=O)N[C@H](C(=O)NCCCN(C(=O)CO)[C@@H](c4cc(-c5cc(F)ccc5F)cn4Cc4ccccc4)C(C)(C)C)C(C)C)cc3)c2)c1 [Compound 17]",
    "measurement kind": "pIC50",
    "data value": "8.00 to 9.00"
  }
]

###

# reported clearance; entries follow
assay details: Pharmacokinetics in rat after intravenous administration
Format: in vivo
condition context: plasma, male rats, intravenous bolus 0.5 mg/kg, read-out: CL plasma

[
  {
    "molecule": "CCc1c2c(nc3ccccc13)-c1cc3c(c(=O)n1C2)COC(=O)[C@@]3(CC)OC(=O)[C@@H](NC(=O)[C@@H]1CCCN1C(=O)[C@H](CC(=O)[O-])NC(=O)CCOCCOCCOCCNC(=O)CCCC(=O)NCCCC[C@H](NC(=O)CCOCCOCCOCCNC(=O)CCC(=O)Nc1cccc2c(C(=O)NCC(=O)N3CC(F)(F)C[C@H]3C#N)ccnc12)C(=O)NCCCCCCCC(=O)[O-])C(C)C.[Na+].[Na+] [Compound 21]",
    "clearance": "0.5 to 5 mL/min/kg"
  },
  {
    "molecule": "CCCNC(=O)Nc1cccc(S(=O)(=O)Nc2cccc([C@@H](CC(=O)O)NC(=O)Nc3ccc(NC(=O)NCCOCCOCCOCCC(=O)N[C@@H](CC(N)=O)C(=O)N4CCC[C@H]4C(=O)N[C@H](C(=O)NCCCN(C(=O)CO)[C@@H](c4cc(-c5cc(F)ccc5F)cn4Cc4ccccc4)C(C)(C)C)C(C)C)cc3)c2)c1 [Compound 17]",
    "clearance": "0.5 to 5 mL/min/kg"
  },
  {
    "molecule": "CCCNC(=O)Nc1cccc(S(=O)(=O)Nc2cccc([C@@H](CC(=O)O)NC(=O)Nc3ccc(NC(=O)NCCOCCOCCOCCC(=O)N[C@@H](CC(=O)O)C(=O)N4CCC[C@H]4C(=O)N[C@H](C(=O)O[C@@H](c4ccccc4)[C@@H](C)NC(=O)[C@H](C)C(OC)[C@@H]4CCCN4C(=O)CC(OC)[C@H]([C@@H](C)CC)N(C)C(=O)[C@@H](NC(=O)[C@@H](NC)C(C)C)C(C)C)C(C)C)cc3)c2)c1 (some centres unmarked) [Compound 13]",
    "clearance": "0.5 to 5 mL/min/kg"
  },
  {
    "molecule": "CCCNC(=O)Nc1cccc(S(=O)(=O)Nc2cccc([C@@H](CC(=O)O)NC(=O)Nc3ccc(NC(=O)NCCOCCOCCOCCC(=O)NCCCC[C@H](NC(=O)CCOCCOCCOCCNC(=O)Nc4ccc(NC(=O)N[C@H](CC(=O)O)c5cccc(NS(=O)(=O)c6cccc(NC(=O)NCCC)c6)c5)cc4)C(=O)NCCOCCOCCOCCC(=O)N[C@@H](CC(=O)O)C(=O)N4CCC[C@H]4C(=O)N[C@H](C(=O)N[C@@H](CCN(C(=O)CO)[C@@H](c4cc(-c5cc(F)ccc5F)cn4Cc4ccccc4)C(C)(C)C)C(=O)NC)C(C)C)cc3)c2)c1 [Compound 27]",
    "clearance": "0.02 to 0.5 mL/min/kg"
  },
  {
    "molecule": "CCCNC(=O)Nc1cccc(S(=O)(=O)Nc2cccc([C@@H](CC(=O)O)NC(=O)Nc3ccc(NC(=O)NCCOCCOCCOCCC(=O)NCCCC[C@H](NC(=O)CCOCCOCCOCCNC(=O)Nc4ccc(NC(=O)N[C@H](CC(=O)O)c5cccc(NS(=O)(=O)c6cccc(NC(=O)NCCC)c6)c5)cc4)C(=O)NCCOCCOCCOCCC(=O)N[C@@H](CC(N)=O)C(=O)N4CCC[C@H]4C(=O)N[C@H](C(=O)NCCCN(C(=O)CO)[C@@H](c4cc(-c5cc(F)ccc5F)cn4Cc4ccccc4)C(C)(C)C)C(C)C)cc3)c2)c1 [Compound 18]",
    "clearance": "0.02 to 0.5 mL/min/kg"
  }
]

###

Test system: 786-O
assay details: Cytotoxicity in vitro in the presence and absence of elastase (MTT assay)
Type: cell-based
condition context: 786-O cells; compound alone; 72 h incubation; read-out: IC50 without neutrophil elastase
pIC50: −log10 of the molar value. Starred links: 1 amine or outer side, 2 acyl side, 3 side chain; linkers in the order of their positions; H or OH if unused. Non-standard residues stand in square brackets, D forms with d. Residues, ends and D or L forms follow the SMILES beside them. Groups on a side chain read outwards from the residue. *: point of attachment. Camptothecin(7-Et) = CCc1c2c(nc3ccccc13)-c1cc3c(c(=O)n1C2)COC(=O)[C@@]3(CC)O*; Deacetylacetazolamide = NS(=O)(=O)c1nnc(N*)s1; Suc = O=C(CCC(=O)[*:2])[*:1]; PEG3 = NCCOCCOCCOCCC(=O)O
# reported pIC50; entries follow

[
  {
    "compound": "CCc1c2c(nc3ccccc13)-c1cc3c(c(=O)n1C2)COC(=O)[C@@]3(CC)OC(=O)[C@@H](NC(=O)[C@@H]1CCCN1C(=O)[C@H](CC(=O)O)NC(=O)CCOCCOCCOCCNC(=O)[C@H](CCCCNC(=O)CCOCCOCCOCCNC(=O)CCC(=O)Nc1nnc(S(N)(=O)=O)s1)NC(=O)CCOCCOCCOCCNC(=O)CCC(=O)Nc1nnc(S(N)(=O)=O)s1)C(C)C [Compound 8] ({Deacetylacetazolamide-Suc-PEG3}-K([PEG3-Suc-Deacetylacetazolamide])[PEG3]DPV-{Camptothecin(7-Et)})",
    "pIC50": "< 6.00"
  },
  {
    "compound": "CC[C@@]1(OC(=O)[C@@H](NC(=O)[C@@H]2CCCN2C(=O)[C@H](CC(=O)O)NC(=O)CCOCCOCCOCCNC(=O)NCCCC[C@H](NC(=O)N[C@@H](CCC(=O)O)C(=O)O)C(=O)O)C(C)C)C(=O)OCc2c1cc1n(c2=O)Cc2c-1nc1cc(F)c(C)c3c1c2[C@@H](N)CC3 [Compound 11]",
    "pIC50": "6.00 to 7.00"
  },
  {
    "compound": "CCCNC(=O)Nc1cccc(S(=O)(=O)Nc2cccc([C@@H](CC(=O)O)NC(=O)Nc3ccc(NC(=O)NCCOCCOCCOCCC(=O)N[C@@H](CC(N)=O)C(=O)N4CCC[C@H]4C(=O)N[C@H](C(=O)N[C@@H](CCN(C(=O)CO)[C@@H](c4cc(-c5cc(F)ccc5F)cn4Cc4ccccc4)C(C)(C)C)C(=O)NC)C(C)C)cc3)c2)c1 [Compound 19]",
    "pIC50": "< 6.00"
  },
  {
    "compound": "CCCNC(=O)Nc1cccc(S(=O)(=O)Nc2cccc([C@@H](CC(=O)O)NC(=O)Nc3ccc(NC(=O)NCCOCCOCCOCCC(=O)N[C@@H](CC(=O)O)C(=O)N4CCC[C@H]4C(=O)N[C@H](C(=O)OCCCNC(=O)[C@H](Cc4ccccc4)NC(=O)[C@H](C)[C@@H](OC)[C@@H]4CCCN4C(=O)C[C@@H](OC)[C@H]([C@@H](C)CC)N(C)C(=O)[C@@H](NC(=O)[C@H](C(C)C)N(C)C)C(C)C)C(C)C)cc3)c2)c1 [Compound 30]",
    "pIC50": "6.00 to 7.00"
  },
  {
    "compound": "CCCNC(=O)Nc1cccc(S(=O)(=O)Nc2cccc([C@@H](CC(=O)O)NC(=O)Nc3ccc(NC(=O)NCCOCCOCCOCCC(=O)N[C@@H](CC(N)=O)C(=O)N4CCC[C@H]4C(=O)N[C@H](C(=O)NCCCN(C(=O)CO)[C@@H](c4cc(-c5cc(F)ccc5F)cn4Cc4ccccc4)C(C)(C)C)C(C)C)cc3)c2)c1 [Compound 16]",
    "pIC50": "< 6.00"
  }
]
